Where these numbers come from: patent US20190328788A1

# MEASUREMENT TARGET: T1, transforming growth factor-beta 2 (TGF-β2) (UniProt P61812 303-414)
# T1 construct: also called TGFb2; TGFB2
# T1 sequence (looked up): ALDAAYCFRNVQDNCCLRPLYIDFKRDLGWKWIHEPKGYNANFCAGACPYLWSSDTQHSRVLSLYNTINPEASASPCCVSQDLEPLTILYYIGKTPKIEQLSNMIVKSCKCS
# PROTOCOL NOTES: ELISA, peptide on streptavidin plate, ligand 100 ng/ml
Ends that are not written are not given here.
List of ELISA OD450 values.
RECORDED METRIC: ELISA OD450 (OD450)

INSERT INTO assay_data (binder, endpoint_unit, result_number) VALUES
  ('LWRWQLYAAQSTKSPWNFLGDELYEQSDEEQDSVKVALLETNP (also: biotinylated, site not given here, also called peptide 26; GT2) [CLPTM1 peptide fragment of SEQ ID NO: 33]', 'OD450', 0.009),
  ('VSGDYYPIIYFNDYWNLQKDYYPINESLASLPLRVSFC (also: biotinylated, site not given here, also called peptide 31; GT7) [CLPTM1 peptide fragment of SEQ ID NO: 38]', 'OD450', 0.717),
  ('KALYRRLATVHMSRMINKYKG (also: biotinylated, site not given here, also called peptide 10) [CLPTM1 peptide fragment of SEQ ID NO: 17]', 'OD450', 1.01),
  ('TKSGFHPDPRQKALYRRLATVHMSRMINKYKRRRFQKTKN (also: biotinylated, site not given here, also called peptide 30; GT6) [CLPTM1 peptide fragment of SEQ ID NO: 37]', 'OD450', 0.483),
  ('RNLFPKDTLMNLHVYISEHEG (also: biotinylated, site not given here) [CLPTM1 peptide fragment of SEQ ID NO: 30]', 'OD450', 0.009);
